Hey, just so you know, these numbers are from patent US20250346673A1.

Quick reference: IC50, inhibition of IFNα secretion, CpG-A stimulated human PBMC of the listed items.
System name: T1, human BDCA2 (human, UniProt Q8WTT0 1-213)
T1 sequence (looked up): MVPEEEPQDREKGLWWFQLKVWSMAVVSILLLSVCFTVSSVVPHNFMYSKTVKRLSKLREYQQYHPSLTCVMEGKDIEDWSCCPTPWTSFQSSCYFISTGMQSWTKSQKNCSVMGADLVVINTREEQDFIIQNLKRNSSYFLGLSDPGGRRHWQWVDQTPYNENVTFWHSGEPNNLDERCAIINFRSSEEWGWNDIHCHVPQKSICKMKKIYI
Experiment description: cell-based or functional assay
Number in pM, nothing else.

mab021c (antibody, V domains shown) VH: DVQLQESGPGLVKPSQSLSLTCSVTGYSITSAYYWNWIRQFPGNKLECMGYITYDGNNYYSPSLKNRISITRDTSKNQFFLNLNSVTTEDTATYFCARGGDYDDGGFAFWGQGTLVTVSA VL: DIQMTQSPASLSASVGETVTITCRASGNIHNYLAWYHQKQGKSPQLLVYNAKSLVDGVPSRFSGSGSGTQYSLRINSLQPEDFGSYYCQHFWIVPYTFGGGTKLEII | 12.7
mab020c (antibody, V domains shown) VH: DVQLQESGPGLVKPSQSLSLTCSVTGYSIASGYYWNWIRQFPGNKLEWMGYISFDGTYNYNPSLKDRFSITRDTSKNQFFLKLNSVTTEDTATYYCARGVDYPNAIDWWGQGTSVTVSS VL: DIVLTQSPASLAVSLGQRATISCRASESVSMHVTHLIHWYQQKPGQPPKLLIYVASNLESGVPARFSGSGSETDFTLNIHPVEEEDAATYFCQQSFEDPWTFGGGTKLEIK | 18.5
mab027c (antibody, V domains shown) VH: DVQLQESGPGLVKPSQSLSLTCSVTGYSITSAYYWNWVRQFPGNQLECMGYITYDGSNNYNPSLKNRISITRDTSKNQFFLKLNSVTTEDTATYYCVRGGDYDDGGFAYWGQGTLVTVSA VL: DIQMTQSPASLSASVGETVTITCRASGNIHNYLAWYQQKQGKSPQLLVYNAKTLVDGVPSRFSGSGSGTEYSLKINSLQPEDFGIYFCQHFWIIPYTFGGGTKLEIR | 8.98

Okay, now this binder:
Bench note: what IC50, inhibition of IFNα secretion, CpG-A stimulated human PBMC did mab019c (antibody, V domains shown) VH: EVKLVESGGDLVQPGGSLKLSCAASGFTFSDYYMYWVRQTPEKRLEWVAYISYSGDSTYYPDTVKGRFTISRDNAKNTLFLQMSRLKSEDTAMYYCARHSPSFPYYFDYWGQGTALTVSS VL: EIVLTQSPAITAASLGQKVTITCSASSSVSYMHWYQQKSGTSPKPWIYEISKLASGVPARFSGSGSGTSYSLTISSMEAEDAAIYYCQLWNYPLITFGGGTNLEIK show?
14.9
